Data origin: PubChem BioAssay AID687028

Assay: A549 cell toxicity, dose response, cytotoxicity control, plate reader, cherry-pick samples (AID 687028);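 note: cells incubated with compound for three days before reading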
Details: series mostly up to 19.5 µM
Screen size: about 1,400 compounds; about 55 (4%) were called active. Not all results are given here. Entries with a potency or affinity are not part of this list.
experimentalReadout: outcome

Below, each entry is followed by its recorded outcome result.
compound	outcome
C[C@H](CO)N1C[C@H](C)[C@H](CN(C)C)Oc2ncc(C#CC3CC3)cc2C1=O	inactive
COc1ccc(S(=O)(=O)Nc2ccc3c(c2)C(=O)N([C@@H](C)CO)C[C@H](C)[C@@H](CN(C)C(=O)Nc2ccc(C(F)(F)F)cc2)OCCCC[C@H](C)O3)cc1	inactive
Cn1c(N)c(C(=O)N2CCN(c3ccccc3)CC2)c(=O)n(C)c1=O	inactive
Cc1ccc2oc3c(c(=O)c2c1)C(c1cccc(Cl)c1)N(CCCN1CCOCC1)C3=O (stereo not drawn)	inactive
O=C(CN1CCN(c2cccc(C(F)(F)F)c2)CC1)N(C1CCCC1)C1CCS(=O)(=O)C1 (stereo not drawn)	inactive

# batch: return outcome for each of the 3 compounds below
1. O=C(OCc1ccccc1)N1CCC2CC1c1ccc(-c3ccc4c(c3)OCO4)cc12 (stereo not drawn)
2. CN(C)C(=O)c1cccc(-c2ccc3c(c2)[C@@H]2[C@@H](CCN2C(=O)Cc2ccncc2)[C@@H](CO)N3)c1
3. COc1ccc(C2=Nc3ccccc3N(C(=O)c3ccncc3)C2C(=O)NC(C)C)cc1 (stereo not drawn)

1. inactive
2. inactive
3. inactive

---

Assay: A549 cell toxicity, dose response, cytotoxicity control, plate reader, cherry-pick samples (AID 687028);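 note: cells incubated with compound for three days before reading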
Settings: series mostly up to 19.5 µM
Among all 1,400 compounds or so, about 55 (4%) were called active. Not all results are given here. Potency and affinity values are given separately.
experimentalReadout: outcome

C[C@@H]1CCCCO[C@@H](CN(C)Cc2ccccc2)[C@@H](C)CN([C@H](C)CO)C(=O)c2cc(NC(=O)c3ccccc3)ccc2O1 inactive
C[C@@H]1CCCCO[C@@H](CN(C)S(=O)(=O)c2ccc(F)cc2)[C@@H](C)CN([C@H](C)CO)C(=O)c2cc(NC(=O)Nc3ccc(C(F)(F)F)cc3)ccc2O1 inactive
C[C@@H]1CN([C@H](C)CO)C(=O)c2cc(NC(=O)c3ccncc3)ccc2O[C@@H](C)CCCCO[C@H]1CN(C)Cc1ccc(Cl)c(Cl)c1 inactive
O=C(CN1CCN(S(=O)(=O)c2ccccc2F)CC1)NC1CCCC1 inactive
